# Test system: SF-268 CNS
# Assay method text: NCI-60 one-dose screen, 48 h (100 = growth as untreated, 0 = no growth, -100 = all killed)
# Particulars: 10 µM unless noted
About 83,000 compounds went through this panel and 20% of them were active in at least one assay; those are over-represented in the sample as a whole.
Readout: growth (%)
Answers are plain numbers, in %.

>>> df
                                   molecule  assayed_target   val
0  CCN(C(=O)CN1C(=O)/C(=C/c2ccco2)SC1=S)C1CCS(=O)(=O)C1 (centres undefined)      SF-268 CNS  95.4
1  COc1cc(NC(=O)C(C)C)ccc1C(=O)NC(=S)Nc1ccc(S(N)(=O)=O)cc1      SF-268 CNS  80.8
2  Cc1nn(-c2ccccc2)c2ncn(CC(=O)N/N=C/c3ccccc3O)c(=O)c12      SF-268 CNS  38.9
3  O=C(COc1ccc(/C=C2/C(=O)Nc3ccc(Cl)cc32)cc1)Nc1ccc(Br)cc1      SF-268 CNS  16.7
4  O=C(N/N=C/c1ccc(Cl)o1)c1[nH]c2ccc(Br)cc2c1-c1ccccc1      SF-268 CNS  3.21

Parameter requested: growth. Apply to each item below.
1. Cc1nn(-c2ccccc2)c2nc(C)n(CC(=O)N/N=C/c3ccccc3O)c(=O)c12
2. COc1ccc(C(=O)NNC(=O)CSc2nc3sc4c(c3c(=O)n2-c2ccc(Cl)cc2)CCCC4)cc1

Ans:
47.6
84.3

Parameter requested: growth. Apply to each item below.
1. O=C(Nc1ccc(S(=O)(=O)N2CCCCC2)cc1)C(Cl)Cl
2. CS(=O)(=O)Nc1cc(-c2ccc3ncnc(Nc4ccc(OCc5cccnc5)c(Cl)c4)c3c2)cnc1Cl

Ans:
1: 105; 2: 14.6

###

# Tested on: MALME-3M melanoma
# Assay method text: NCI-60 one-dose screen, 48 h
# Particulars: 10 µM unless noted
About 83,000 compounds went through this panel and 20% of them were active in at least one assay; those are over-represented in the sample as a whole. The source made the active and inactive calls. Rule for the calls: active = growth percent below 10; inactive = the rest.
# valid calls are active, inactive; nothing else

Below are worked cases with known answers.
In [3]: df
Out[3]:
                                  structure  classification
0  COc1ccc(C(=O)C[n+]2cccc3c4ccccc4ccc32)cc1        inactive
1  COc1ccc(NC(=O)Cn2c(/C=C/c3cccc(OC)c3)nc3ccccc3c2=O)cc1        inactive

Continue with the next compound.
Q: What did this assay record as the result for O=C1Nc2cc(-c3ccc(NS(=O)(=O)c4ccc([N+](=O)[O-])cc4)cc3)ccc2/C1=C/c1ccc[nH]1 ?
Ans: active

###

# Test system: 786-0 renal
# Assay method text: NCI-60 one-dose screen, 48 h (100 = growth as untreated, 0 = no growth, -100 = all killed)
# Particulars: 10 µM unless noted
Compounds without any hit were thinned out: in the full panel of roughly 83,000, 20% have a hit.
Rule: measured growth below 30% gets True; anything equal to or greater than 30% gets False.

Q: Please let me know if O=C(CSc1nnc(-c2ccc(-c3nc4ccccc4[nH]3)cc2)o1)Nc1ccccc1 shows growth below 30%.
Ans: True

Q: OCCn1cc(-c2nc3ccc4[nH]ncc4c3c3c2CCCC3)cn1 ?
Ans: False

Q: COc1c(B(O)O)cccc1-c1nc2ccc3cn[nH]c3c2c2c1CCCC2 ?
Ans: False

Q: CCCn1c(NC(=O)c2cccc(C(N)=O)c2)nc2ccc(CN3CCCCC3)cc21 ?
Ans: True

Q: FC(F)(F)c1cc2c(Cl)ncnc2n1CCN1CCCCC1 ?
Ans: False

Q: Clc1ccc(Nc2nnc(-c3c[nH]c4ccccc34)o2)cc1 ?
Ans: False

Q: N#C/C(=C1/C(=O)Nc2ccccc21)c1nnc(NC(=O)c2ccc(-n3c(=O)[nH]c4ccccc4c3=O)cc2)s1 ?
Ans: False

Q: CC(C)C[C@H](NC(=O)[C@@H]1CCCCCCCCCCC(=O)N[C@@H](CC(=O)N2CCC[C@@H]2C2CCCC2)C(=O)N1)B(O)O ?
Ans: True

Q: COc1ccc(-n2c(NC(=O)N3CCN(C)CC3)c(C#N)c3ccccc32)cc1 ?
Ans: False

###

# System: DU-145 prostate
# Assay method text: NCI-60 one-dose screen, 48 h (100 = growth as untreated, 0 = no growth, -100 = all killed)
# Particulars: 10 µM unless noted
Compounds without any hit were thinned out: in the full panel of roughly 83,000, 20% have a hit.
Readout: growth (%)
Answers are plain numbers, in %.

Record excerpt, results attached:
Compound	Readout	Unit name	Val
COc1ccc(NC(=O)NN2C(=O)c3ccccc3N(C)C2c2ccc(OC)cc2)cc1 (centres undefined)	growth	%	107
COc1ccc(C(=O)/C=C/c2ccc3c(c2)OCCO3)cc1S(N)(=O)=O	growth	%	44.7
CC(C)(C)OC(=O)N1CCC2(CC1)Oc1ccccc1[C@H]1CC(c3ccc(Br)cc3)=NN12	growth	%	93.1
O=C1Nc2cc(-c3ccc(NS(=O)(=O)c4ccc([N+](=O)[O-])cc4)cc3)ccc2/C1=C/c1ccc[nH]1	growth	%	-44.9
COc1ccc(NC(=O)Cn2c(/C=C/c3cccc(OC)c3)nc3ccccc3c2=O)cc1	growth	%	74.3
COC(=O)c1cc(C(=O)C(Br)Br)n2c1ccc1c3ccccc3ccc12	growth	%	52.2
COc1ccccc1Nc1nnc(-c2c[nH]c3ccccc23)o1	growth	%	12.6
CN1C(=O)C(O)(CC(=O)c2cc3ccccc3oc2=O)c2ccccc21 (centres undefined)	growth	%	137
O=C1CCC(N2C(=O)c3cccc(NCCOCCOCCOCCC(=O)NCCCC(=O)NC(c4ccc5c(c4)OCO5)c4cc(Cl)c5cccnc5c4O)c3C2=O)C(=O)C1 (centres undefined)	growth	%	60
COC(=O)c1c(C(=O)OC)c2c3ccccc3c3ccccc3n2c1C(=O)C(C)(C)C	growth	%	95.7

Parameter requested: growth. Apply to each item below.
1. ClC(Cn1ncc2c(Nc3cccc(Br)c3)nc(SCCN3CCOCC3)nc21)c1ccc(Br)cc1 (centres undefined)
2. O=C1/C(=C/c2cnc(-c3ccccc3)s2)SC(=S)N1Cc1ccc2c(c1)OCO2
3. CN1CCN(CCS(=O)(=O)Nc2cc(-c3ccc4ncnc(Nc5ccc(F)c(Cl)c5)c4c3)cnc2Cl)CC1
4. CCCCNC(=S)Nc1ccc(OCc2nc3ccc(Cl)cc3[nH]2)cc1
5. O=S(=O)(c1nc(-c2ccc(Br)cc2)oc1-c1ccc(Cl)cc1)N1CCCC(O)C1 (centres undefined)

Ans:
28.6
86
14.8
26.3
72.6

Parameter requested: growth. Apply to each item below.
1. N#Cc1cc(-c2ccc3ncnc(N4CCc5cc(F)c(Cl)cc54)c3c2)cnc1N
2. COC(=O)c1cc(C(C)=O)n2c3ccccc3c3ccccc3c12
3. O=C(CSc1nnc(-c2ccc(-c3nc4ccc(Cl)cc4[nH]3)cc2)o1)Nc1ccccc1
4. CCCCCCCCCc1ccc(C(=O)Nc2cc(C)ccc2C(=O)OC)cc1

Ans:
8.95
67
6.69
119

###

# Tested on: MCF7 breast
# Assay method text: NCI-60 one-dose screen, 48 h (100 = growth as untreated, 0 = no growth, -100 = all killed)
# Particulars: 10 µM unless noted
The panel holds about 83,000 compounds, 20% with a hit somewhere; the sample as a whole holds those more often. Activity calls are given as the source filed them. How the source made its calls: active means growth percent below 10; inactive means the rest.
Field: growth. Provide a value for each of the compounds that follow.

Parameter requested: growth. Apply to each item below.
1. COc1ccc(C2=Nc3c(N)nc(N)nc3NC(c3ccc(Oc4nc(Nc5ccc(F)cc5)nc(N(C)C)n4)c(OC)c3)C2)cc1 (stereo not drawn)
2. CN(C(=O)CN1C(=O)/C(=C/c2ccco2)SC1=S)C1CCS(=O)(=O)C1 (stereo not drawn)

Ans:
38.8% (inactive)
91.1% (inactive)

###

# Tested on: HOP-62 NSCLC
# Assay method text: NCI-60 one-dose screen, 48 h (100 = growth as untreated, 0 = no growth, -100 = all killed)
# Particulars: 10 µM unless noted
The panel holds about 83,000 compounds, 20% with a hit somewhere; the sample as a whole holds those more often.
Readout: growth (%)
One number for each entry, in %.

Record excerpt, results attached:
In [3]: df
Out[3]:
                                  structure    val
0  Cc1ccc(-c2cc(-c3ccccc3)[nH]c(=O)c2C#N)cc1   85.3
1  COc1ccc2[nH]cc(-c3cc(N)n4nc(-c5c[nH]c6ccccc56)cc4n3)c2c1  -45.2
2  N#C/C(=C/c1ccc(Cl)cc1)c1nnc(NC(=O)c2ccc(-n3c(=O)[nH]c4ccccc4c3=O)cc2)s1   26.6
3  COc1ccc2[nH]c(O)c(N=Nc3nc(-c4ccc(Cl)cc4)cs3)c2c1  -26.6
4  O=C(N/N=C/c1occc1Br)c1[nH]c2ccc(Br)cc2c1-c1ccccc1  -69.1

Parameter requested: growth. Apply to each item below.
1. Cc1nn(-c2ccccc2)c2ncn(CC(=O)N/N=C/c3ccccc3O)c(=O)c12
2. COc1ccc2[nH]c(O)c(N=NC(=O)c3ccc4nc(-c5ccc(Cl)cc5)[nH]c4c3)c2c1
3. COc1ccc(C(=O)c2c(N)c(C#N)cn2-c2ccc([N+](=O)[O-])cc2)cc1
4. N#CCc1nnc(NC(=O)c2ccc(-n3c(=O)[nH]c4ccccc4c3=O)cc2)s1
5. COc1sc(/C=N/NC(=O)c2[nH]c3ccc(Br)cc3c2-c2ccccc2)cc1Br
6. O=C(N/N=C/c1ccc(Cl)cc1)c1ccc(OCc2nc3ccc(Cl)cc3[nH]2)cc1
7. CC(C)(C)c1cc(-c2cc(-c3ccccc3)[nH]c(=O)c2C#N)cc(C(C)(C)C)c1
8. CN(C)c1nc(NCCNS(=O)(=O)c2ccc(C(=O)/C=C/c3ccc(Cl)cc3)cc2)nc(N2CCOCC2)n1

Ans:
[27.4, 48.9, 83.4, 101, 12.2, -41.6, -40.2, 74.8]

Parameter requested: growth. Apply to each item below.
1. COc1ccc(N=Nc2c(N)nn3c(-c4ccc(OC)c(OC)c4)ccnc23)cc1
2. COc1ccc2[nH]c(O)c(N=Nc3nc(-c4ccccc4)cs3)c2c1
3. Cc1ccc(C(=O)Nc2cc(-c3ccncc3)cc(C(F)(F)F)c2)cc1C#Cc1cnc2cccnn12
4. COc1c(B(O)O)cccc1-c1nc2ccc3cn[nH]c3c2c2c1CCCC2
5. C/C(=N/O)c1ccc(NC(=O)CSc2nnc(-c3ccc(-c4nc5ccc(Cl)cc5[nH]4)cc3)o2)cc1
6. COc1ccc2nc(NC(=O)c3ccc(N(C)C)cc3)sc2c1

Ans:
1: 21.5; 2: 21.3; 3: 44.3; 4: 68.7; 5: -82; 6: 92
